B1: Pistol ribozyme (parent)
chain: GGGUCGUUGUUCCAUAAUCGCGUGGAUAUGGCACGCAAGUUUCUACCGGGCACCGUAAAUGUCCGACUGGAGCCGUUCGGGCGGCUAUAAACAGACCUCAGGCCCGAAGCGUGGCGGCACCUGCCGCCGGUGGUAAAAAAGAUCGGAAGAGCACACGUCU

Variants of: B1
test-method-notes: aptazyme ON/OFF ratio, guanine; higher = stronger switching; co-transcriptional cleavage with and without guanine
measured-quantity: aptazyme ON/OFF ratio

* U8C G9U U10C U11C C13G | 1.02
* U8A G9A U11C C12A C13U | 1.2
* U7A U8A G9A U11G C13U | 1.29
* U7G U8G U10C U11G C12U C13A | 1.16
* U7C U8G G9A U10G U11G C12U C13A | 1.42
* U7G U10C U11C C12G | 1.13
* U7C G9A U10A U11A C12A C13A | 1.2
* U7C U8G G9A U10A C12U C13U | 1.27
* U7C G9C U10C U11A C12A C13A | 1.08
* U7C U8A G9C U10C U11A C12G C13A | 1.1
* U8C G9A U10A C12A C13G | 1.13
* U7G U8C G9U U10G U11G C12U C13U | 1.44
* U7A U8G G9C U10C U11C C12U | 0.975
* G9C U10A U11A C12U C13U | 1.42
* U8C U10G C12U | 1.36
* U7C U8G G9U U10C U11C C12A C13U | 1.18
* U7C U8G U10A U11C C12U C13G | 1.18
* U7A U8G G9U U10A U11C C13U | 0.998
* U7C U8A G9C U10G U11C C12G C13G | 1.23
* U7G U8A G9C U10G U11G | 1.14
* U7A G9U U11A | 1.27
* U7C G9C U10C U11G | 1.07
* U7G G9C U10A C13A | 1.2
* U7G U8C G9A U10C C13G | 1.08
* U7G U8G G9A U10G C12G C13U | 1.55
* U7A U8G G9A U10G U11A C12U | 1.12
* U7G U8C G9U U10C U11C C12U | 1.29
* U7A G9U U10A U11A C12G | 1.26
* U7A U8G G9U U10C C12U C13G | 1.54
* U7C U8G G9A U11C | 1.04
* U8A U10A U11A C12A C13A | 1.21
* U7G U8A U10A U11G C12A | 1.11
* U7G G9A U11G C12G C13G | 1.07
* U8C G9C U11G C13U | 1.1
* U7G U10G C12U C13U | 1.43
* U8C G9A U10C U11C C13A | 1.01
* U7A U8A G9C U11G C13A | 1.22
* U7A U8G U10C C12U C13U | 1.51
* U7A U8G G9A C13A | 1.39
* U7G U8C G9U U10A U11G C13U | 1.38
* U7A U8C U10C C12U C13A | 1.17
* U7A U8G G9U U10A C12G | 1.45
* U8G U10C U11A | 1.89
* U8G G9C U10C U11A C12G C13G | 1.1
* U7C U8G G9C U10G U11G C12G C13U | 1.15
* U7A U8A G9A U10C U11G C12U C13A | 1.14
* U7C U8G G9C C12A | 1.58
* U8A U10A U11A C12U C13U | 1.17
* U7C U8G U10A U11A C12A | 1.14
* U7G U8A G9U U10A U11C C12A | 1.07
* U7C U8A U10C C13G | 1.22
* U8A G9A U10G U11G C12U C13G | 1.26
* U7G U8G G9U C12A C13U | 1.06
* U7G U8A G9C U10C | 2.1
* U7G U8C G9C U10C U11C C12A C13A | 1.05
* U8C G9C U11G C12U | 1.12
* U8A G9C U11G C12U | 1.45
* U7G U10G U11G C12U | 1.24
* U7G U8A G9C U10C U11A C12A C13G | 1.02
* U7C G9C U10G C12U C13U | 1.17
* U7A U8C G9A U10G C13G | 1.2
* U8G G9C U10G U11C C12A | 1.05
* U8G G9A U10A C12G C13G | 1.3
* U7G U8G G9U U10G U11A C13U | 1.19
* U7A U8A G9C U10A C12U C13U | 1.04
* U7A U8G U11A C12G C13U | 1.24
* U7A U8G C13U | 1.2
* U7G U8C G9A U10C U11A C12U | 1.18
* U7A U8A G9U U11A C12G | 1.33
* U7C U8A U10G U11C C13A | 1.08
* U8A G9U U10G C13A | 1.18
* G9C U10C U11A C12G C13U | 1.22
* U7A U8A G9A U10C U11A C12A C13A | 1.11
* U8C G9A U10A U11C | 1.05
* U7G U8C U10G C12U C13U | 1.36
* U8C G9A U10A U11A | 1.47
* U7A G9C U10A U11A C12U C13U | 1.1
* G9U U10C C12U | 1.71
* U7G U8G G9C U10C C12A | 1.33
* U7A G9C U11A C12A | 1.07
* U7C U8A G9A U10C C12U C13U | 1.26
